# target.under.test: JAK3-JH1JH2 (Homo sapiens (Human))
# Sequence (P52333 512-1124): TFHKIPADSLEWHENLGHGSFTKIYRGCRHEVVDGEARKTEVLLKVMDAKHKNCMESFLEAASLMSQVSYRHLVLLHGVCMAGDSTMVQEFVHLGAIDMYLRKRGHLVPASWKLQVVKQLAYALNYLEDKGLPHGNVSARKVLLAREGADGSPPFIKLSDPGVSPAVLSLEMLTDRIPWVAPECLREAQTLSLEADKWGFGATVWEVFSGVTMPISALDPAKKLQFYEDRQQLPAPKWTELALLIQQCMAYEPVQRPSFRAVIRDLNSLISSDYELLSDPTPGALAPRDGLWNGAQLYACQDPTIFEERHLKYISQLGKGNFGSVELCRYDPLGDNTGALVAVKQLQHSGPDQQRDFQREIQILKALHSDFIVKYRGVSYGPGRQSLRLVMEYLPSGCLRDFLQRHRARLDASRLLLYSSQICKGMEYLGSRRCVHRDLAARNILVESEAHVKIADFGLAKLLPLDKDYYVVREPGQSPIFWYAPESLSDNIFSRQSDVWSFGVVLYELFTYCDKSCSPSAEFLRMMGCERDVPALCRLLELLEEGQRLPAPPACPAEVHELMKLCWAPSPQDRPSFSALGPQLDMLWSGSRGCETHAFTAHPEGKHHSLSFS
readout.type: log10 of IC50 (log10 of the value in µM)
Would you kindly interpret these values as log10 of IC50 expressed in µM?

Return reported log10 of IC50. Input molecule: N#CC[C@H]1CC[C@H](n2c(Cn3c(C4CC4)noc3=O)nc3cnc4[nH]ccc4c32)CC1
0.43

Return reported log10 of IC50. Input molecule: CC(C)(O)CNC(=O)Cc1nc2cnc3[nH]cc(F)c3c2n1[C@H]1CC[C@H](CC#N)CC1
-1.21

Return reported log10 of IC50. Input molecule: CS(=O)(=O)N1CC(c2nc3cnc4[nH]ccc4c3n2[C@H]2CC[C@H](CC#N)CC2)C1
0.11

Return reported log10 of IC50. Input molecule: CC(C)CN1CCC(NC(=O)Cc2nc3cnc4[nH]ccc4c3n2[C@H]2CC[C@H](CC#N)CC2)CC1
-1.51

Return reported log10 of IC50. Input molecule: N#CC[C@H]1CC[C@H](n2c(CC(=O)N[C@H]3CC[C@@H](O)CC3)nc3cnc4[nH]ccc4c32)CC1
-1.41

Return reported log10 of IC50. Input molecule: Cc1nc(C)c(-c2nc3cnc4[nH]ccc4c3n2[C@H]2CC[C@H](CC#N)CC2)s1
0.09

---

# experiment.summary: In vivo p.o. dosing: plasma and colon tissue concentrations (Protocols 1 and 2)
# Set-up: species or system female C57BL/6 mice
# conditions.used: female, C57BL/6, mouse, colon, po; mice, 25 mg/kg p.o., Time = 4 h; read-out: Colon Concentration After p.o. Dosing, Mean
readout.type: concentration at 4 h (ng/g)
Give just the number in ng/g; leave the unit off.

Return reported concentration at 4 h. Input compound: Cn1cc(NC(=O)Cc2nc3cnc4[nH]ccc4c3n2[C@H]2CC[C@H](CC#N)CC2)cn1 [Ex. 38]
7680

Return reported concentration at 4 h. Input compound: N#CCCNC(=O)Cc1nc2cnc3[nH]ccc3c2n1[C@H]1CC[C@H](CC#N)CC1 [Ex. 4]
4450

Return reported concentration at 4 h. Input compound: N#CC[C@H]1CC[C@H](n2c(CC(=O)NCC3(O)CC3)nc3cnc4[nH]ccc4c32)CC1 [Ex. 85]
5880

Return reported concentration at 4 h. Input compound: N#CC[C@H]1CC[C@H](n2c(CC(=O)NCC3CC3)nc3cnc4[nH]ccc4c32)CC1 [Ex. 3]
2150

Return reported concentration at 4 h. Input compound: N#CC[C@H]1CC[C@H](n2c(CC(=O)Nc3cc[nH]n3)nc3cnc4[nH]ccc4c32)CC1 [Ex. 74]
4780

Return reported concentration at 4 h. Input compound: N#CC[C@H]1CC[C@H](n2c(CC(=O)NCC3CCOCC3)nc3cnc4[nH]ccc4c32)CC1 [Ex. 10]
11700

Return reported concentration at 4 h. Input compound: N#CC[C@H]1CC[C@H](n2c(CC(=O)NCC3(O)CCC3)nc3cnc4[nH]ccc4c32)CC1 [Ex. 34]
7400

Return reported concentration at 4 h. Input compound: CC(C)(O)CNC(=O)Cc1nc2cnc3[nH]ccc3c2n1[C@H]1CC[C@H](CC#N)CC1 [Ex. 1]
8590

---

# target.under.test: Tyk2-JH1JH2 (Homo sapiens (Human), UniProt P29597, C1142A/C936A)
# Sequence (P29597 580-1182 C936A/C1142A): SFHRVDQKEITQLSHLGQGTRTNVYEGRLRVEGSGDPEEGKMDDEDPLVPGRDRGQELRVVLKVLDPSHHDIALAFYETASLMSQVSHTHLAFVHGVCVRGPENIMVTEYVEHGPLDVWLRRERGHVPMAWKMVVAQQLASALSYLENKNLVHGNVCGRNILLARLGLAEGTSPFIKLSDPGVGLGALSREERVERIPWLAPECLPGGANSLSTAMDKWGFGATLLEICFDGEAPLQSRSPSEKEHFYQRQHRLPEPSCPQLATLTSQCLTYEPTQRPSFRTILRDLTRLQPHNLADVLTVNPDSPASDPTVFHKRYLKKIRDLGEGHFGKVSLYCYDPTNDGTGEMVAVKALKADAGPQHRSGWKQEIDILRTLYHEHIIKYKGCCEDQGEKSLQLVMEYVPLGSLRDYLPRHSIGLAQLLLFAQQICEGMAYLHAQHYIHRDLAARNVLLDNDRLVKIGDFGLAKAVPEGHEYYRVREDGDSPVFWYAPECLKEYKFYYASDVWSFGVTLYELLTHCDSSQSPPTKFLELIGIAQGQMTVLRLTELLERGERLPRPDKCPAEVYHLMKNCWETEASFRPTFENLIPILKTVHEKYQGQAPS
# experiment.summary: Enzymatic inhibition assay (RapidFire HTMS), Tyk2
# conditions.used: 50 μM ATP, 200 μM substrate
Class membership depends on IC50 alone; the intervals are low: < 10 nM; medium: ≥ 10 nM and < 20 nM; high: ≥ 20 nM

Form: Item = COCC/C(=N/O)NCc1nc2cnc3[nH]ccc3c2n1[C@H]1CC[C@H](CC#N)CC1 ; Class = ?
medium

Form: Item = N#CC[C@H]1CC[C@H](n2c(CNS(=O)(=O)c3ccc(C#N)cc3)nc3cnc4[nH]ccc4c32)CC1 ; Class = ?
high

Form: Item = CC(C)(O)CNC(=O)c1nc2cnc3[nH]ccc3c2n1[C@H]1CC[C@H](CC#N)CC1 ; Class = ?
medium

Form: Item = N#CC[C@H]1CC[C@H](n2c(CC(=O)NC34CC5CC(CC(C5)C3)C4)nc3cnc4[nH]ccc4c32)CC1 ; Class = ?
low

Form: Item = Cc1cc2c(ncc3nc(CC(=O)NCC(C)(C)O)n([C@H]4CC[C@H](CC#N)CC4)c32)[nH]1 ; Class = ?
high

Form: Item = N#CC[C@H]1CC[C@H](n2c(CC(=O)NCc3ccccc3)nc3cnc4[nH]ccc4c32)CC1 ; Class = ?
medium

Form: Item = N#CCC12CCC(n3c(CC(=O)Nc4ccccc4)nc4cnc5[nH]ccc5c43)(CC1)CC2 ; Class = ?
high

Form: Item = N#CC[C@H]1CC[C@H](n2c(CC(=O)NCc3ccc(CO)cc3)nc3cnc4[nH]ccc4c32)CC1 ; Class = ?
medium

Form: Item = N#CC[C@H]1CC[C@H](n2c(CC(=O)NC34CCC(C#N)(CC3)C4)nc3cnc4[nH]ccc4c32)CC1 ; Class = ?
low

Form: Item = N#CC[C@H]1CC[C@H](n2c(CC(=O)Nc3ccccc3)nc3cnc4[nH]ccc4c32)CC1 ; Class = ?
low

Form: Item = COCC(C)NC(=O)c1nc2cnc3[nH]ccc3c2n1[C@H]1CC[C@H](CC#N)CC1 (stereo partly shown) ; Class = ?
high

Form: Item = N#CC[C@H]1CC[C@H](n2c(CC(=O)N[C@H]3CC[C@H](CO)CC3)nc3cnc4[nH]ccc4c32)CC1 ; Class = ?
low

Form: Item = N#CC[C@H]1CC[C@H](n2c(CC(=O)N3CCC(Cc4ccccc4)CC3)nc3cnc4[nH]ccc4c32)CC1 ; Class = ?
medium

Form: Item = CC1(C)CCC(NC(=O)Cc2nc3cnc4[nH]ccc4c3n2[C@H]2CC[C@H](CC#N)CC2)CC1 ; Class = ?
medium

Form: Item = N#CC[C@H]1CC[C@H](n2c(COC(=O)NCC3CCCCC3)nc3cnc4[nH]ccc4c32)CC1 ; Class = ?
medium

Form: Item = COC1CCN(C(=O)Cc2nc3cnc4[nH]ccc4c3n2[C@H]2CC[C@H](CC#N)CC2)CC1 ; Class = ?
low

Form: Item = N#CCC(=O)N1CC(c2nc3cnc4[nH]ccc4c3n2[C@H]2CC[C@H](CC#N)CC2)C1 ; Class = ?
high

Form: Item = CC(=O)N1CCC(c2nc3cnc4[nH]ccc4c3n2[C@H]2CC[C@H](CC#N)CC2)CC1 ; Class = ?
high

Form: Item = N#CC[C@H]1CC[C@H](n2c(CC(=O)NCc3cnccn3)nc3cnc4[nH]ccc4c32)CC1 ; Class = ?
low
